- target-system: T1, human PD-L1-Fc (R&D Systems) chimeric protein (human, UniProt Q9NZQ7 19-239)
- T1 construct: Bought reagent; also called rhPD-L1-Fc; huPD-L1; Fc part of the bought chimera not given, not described
- T1 sequence (Q9NZQ7 19-239, change not shown): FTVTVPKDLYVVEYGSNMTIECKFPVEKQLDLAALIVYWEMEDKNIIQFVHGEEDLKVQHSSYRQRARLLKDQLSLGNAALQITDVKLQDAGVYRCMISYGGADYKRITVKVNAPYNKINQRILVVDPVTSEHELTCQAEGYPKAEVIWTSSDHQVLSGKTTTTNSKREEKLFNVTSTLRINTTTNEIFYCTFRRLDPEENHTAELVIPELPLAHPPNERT
- test-name: SPR (Biacore T200), PD-L1-Fc amine-coupled to CM5, Affimer analyte
parameter: kon (M⁻¹ s⁻¹)

binder="AVA04-261 XT10 (designed binder) MIPRGLSEAKPATPEIQEIVDKVKPQLEEKTNETYGKLEAVQYKTQVLAHAYGPRDWDSTNYYIKVRAGDNKYMHLKVFNGPPADHVLEEAADRVLTGYQVDKNKDDELTGFAEAAAKEAAAKEAAAKEAAAKEAAAKEAAAKMIPRGLSEAKPATPEIQEIVDKVKPQLEEKTNETYGKLEAVQYKTQVLANFFQRRWPGSTNYYIKVRAGDNKYMHLKVFNGPWKFRNTDRGADRVLTGYQVDKNKDDELTGFHHHHHH" parameter=kon recorded_measurement=875000
binder="AVA04-269 (designed binder) MIPRGLSEAKPATPEIQEIVDKVKPQLEEKTNETYGKLEAVQYKTQVLAKEYGPEEWWSTNYYIKVRAGDNKYMHLKVFNGPGDYEQVLIHADRVLTGYQVDKNKDDELTGF" parameter=kon recorded_measurement=2.05e+06
binder="AVA04-236 (designed binder) MIPRGLSEAKPATPEIQEIVDKVKPQLEEKTNETYGKLEAVQYKTQVLAKEHGPDSWWSTNYYIKVRAGDNKYMHLKVFNGPQEKNQWVEEADRVLTGYQVDKNKDDELTGF" parameter=kon recorded_measurement=1.8e+06

meta.source: patent US20230272011A1
